# Tested on: human ovarian cancer cells A2780
# PROTOCOL_DETAILS: Cell anti-proliferation assay (MTT), A2780
# Type: cell-based
# SETTINGS: Homo sapiens, 120 h, incubated for 5 days
PROPERTY: IC50

# get_value(readout='IC50', item= "C[C@H]1CCN(c2c(F)cccc2F)c2nc3c(F)cc(-c4nc(N[C@@H]5CCOC[C@H]5O)ncc4Cl)cc3n21" )
0.5 to 2 µM

# get_value(readout='IC50', item= "CC(C)n1c(N2CCOC2=O)nc2c(F)cc(-c3nc(NC4CCN(S(=O)(=O)C5CC5)CC4)ncc3Cl)cc21" )
≤ 0.5 µM

# get_value(readout='IC50', item= "CC1(C)CSc2nc3c(F)cc(-c4nc(N[C@@H]5CCOC[C@H]5O)ncc4Cl)cc3n2C1" )
≤ 0.5 µM

# get_value(readout='IC50', item= "C[C@@H]1CCN(C)c2nc3c(F)cc(-c4nc(N[C@@H]5CCOC[C@H]5O)ncc4Cl)cc3n21" )
≤ 0.5 µM

# get_value(readout='IC50', item= "CNS(=O)(=O)N1CCC(Nc2ncc(Cl)c(-c3cc(F)c4nc5n(c4c3)CCCN5C)n2)CC1" )
≤ 0.5 µM

# get_value(readout='IC50', item= "COc1cc(N2CCNCC2)ccc1Nc1ncc(Cl)c(-c2cc(F)c3nc(N(C)C)n(C(C)C)c3c2)n1" )
0.5 to 2 µM

# get_value(readout='IC50', item= "CC(C)n1c(N(C)C)nc2c(F)cc(-c3nc(N[C@@H]4CCN(S(C)(=O)=O)C[C@H]4O)ncc3Cl)cc21" )
≤ 0.5 µM

====

# TARGET_DESC: CDK4/CycD1 (Homo sapiens, UniProt P11802)
# Sequence (P11802 whole entry): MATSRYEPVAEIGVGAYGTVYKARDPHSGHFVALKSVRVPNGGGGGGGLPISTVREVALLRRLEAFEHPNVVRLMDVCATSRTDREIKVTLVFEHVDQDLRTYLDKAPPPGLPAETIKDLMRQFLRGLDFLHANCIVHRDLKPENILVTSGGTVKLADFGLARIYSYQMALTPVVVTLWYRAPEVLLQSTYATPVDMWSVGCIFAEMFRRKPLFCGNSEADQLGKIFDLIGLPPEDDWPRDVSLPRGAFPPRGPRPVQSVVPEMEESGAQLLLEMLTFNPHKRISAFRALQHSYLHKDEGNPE
# PROTOCOL_DETAILS: Kinase activity assay (MSA, EZ Reader) against CDK4
PROPERTY: IC50 (nM)
# number only, unit nM dropped from output

Consider the worked cases shown below.
In [3]: df
Out[3]:
                           smiles_structure  quantity_unit  endpoint_value
0  CC(C)n1c(N2CCOC2=O)nc2c(F)cc(-c3nc(Nc4ccc(S(C)(=O)=O)cc4)ncc3Cl)cc21             nM             101
1  CC(C)n1c(N2CC(O)C2)nc2c(F)cc(-c3nc(N[C@@H]4CCOC[C@H]4O)ncc3Cl)cc21             nM            6.37
2  CC(C)n1c(N(C)CCO)nc2c(F)cc(-c3nc(N[C@@H]4CCOC[C@H]4O)ncc3Cl)cc21             nM            40.1

# get_value(readout='IC50', item= "C[C@H]1CCN(C)c2nc3c(F)cc(-c4nc(N[C@@H]5CCN(S(C)(=O)=O)C[C@H]5O)ncc4Cl)cc3n21" )
2.1

====

# TARGET_DESC: CDK6/CyclinD3 (Homo sapiens)
# Sequence (Q00534 whole entry): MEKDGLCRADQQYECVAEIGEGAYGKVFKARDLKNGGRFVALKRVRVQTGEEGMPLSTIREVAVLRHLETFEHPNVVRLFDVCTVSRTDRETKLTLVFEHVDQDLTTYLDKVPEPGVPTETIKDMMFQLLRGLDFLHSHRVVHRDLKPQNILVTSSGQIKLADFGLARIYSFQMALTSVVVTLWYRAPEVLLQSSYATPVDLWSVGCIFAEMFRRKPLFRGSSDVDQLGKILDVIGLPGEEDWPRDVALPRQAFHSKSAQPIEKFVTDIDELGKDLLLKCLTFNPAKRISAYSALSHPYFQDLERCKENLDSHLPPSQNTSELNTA
# Sequence (P30281 whole entry partner): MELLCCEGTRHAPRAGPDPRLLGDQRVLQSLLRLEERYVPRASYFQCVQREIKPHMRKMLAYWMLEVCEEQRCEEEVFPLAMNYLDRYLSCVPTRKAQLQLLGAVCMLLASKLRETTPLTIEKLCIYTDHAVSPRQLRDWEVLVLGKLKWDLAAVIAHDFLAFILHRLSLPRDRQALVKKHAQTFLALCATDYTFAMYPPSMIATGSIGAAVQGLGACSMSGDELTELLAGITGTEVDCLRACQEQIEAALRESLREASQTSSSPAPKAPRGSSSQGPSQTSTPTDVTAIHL
# PROTOCOL_DETAILS: Kinase activity assay (MSA, EZ Reader) against CDK6
# SETTINGS: CDK6/CyclinD3 5.00 nM, ATP 350 µM, FL-Peptide34, 10mM MgCl2
I'd appreciate it if you could label each record using IC50 and these ranges: small value: < 60 nM; mid value: ≥ 60 nM and < 100 nM; large value: ≥ 100 nM

The following compounds have reported results that may help.
>>> df
                                   compound                   target_desc  assigned_category
0  CC(C)n1c(N2CCOC2=O)nc2c(F)cc(-c3nc(Nc4ccc(S(C)(=O)=O)cc4)ncc3Cl)cc21  CDK6/CyclinD3 (Homo sapiens)        large value
1  COc1cc(N2CCNCC2)ccc1Nc1ncc(Cl)c(-c2cc(F)c3nc(N(C)C)n(C(C)C)c3c2)n1  CDK6/CyclinD3 (Homo sapiens)        large value
2  CN1CCCn2c1nc1c(F)cc(-c3nc(Nc4ccc(C#N)cc4)ncc3Cl)cc12  CDK6/CyclinD3 (Homo sapiens)          mid value
3  CCN1CCN(Cc2ccc(Nc3ncc(Cl)c(-c4cc(F)c5nc(N(C)C)n(C(C)C)c5c4)n3)nc2)CC1  CDK6/CyclinD3 (Homo sapiens)        small value
4  CC(C)n1c(N(C)C)nc2c(F)cc(-c3nc(N[C@@H]4CCOC[C@H]4O)ncc3Cl)cc21  CDK6/CyclinD3 (Homo sapiens)          mid value

Any idea which band "C[C@H]1CCN(C2CC2)c2nc3c(F)cc(-c4nc(N[C@@H]5CCOC[C@H]5O)ncc4Cl)cc3n21" is in?
mid value

Any idea which band CNS(=O)(=O)c1ccc(Nc2ncc(Cl)c(-c3cc(F)c4nc5n(c4c3)C(C)CCN5C)n2)cc1 (stereo not shown) is in?
small value

Any idea which band "C[C@H]1CCN(C)c2nc3c(F)cc(-c4nc(N[C@@H]5CCOC[C@H]5O)ncc4Cl)cc3n21" is in?
large value

Any idea which band "CN1CCn2c1nc1c(F)cc(-c3nc(NC4CCN(S(C)(=O)=O)CC4)ncc3Cl)cc12" is in?
small value

Any idea which band "CC(C)n1c(N2CC(O)C2)nc2c(F)cc(-c3nc(N[C@@H]4CCOC[C@H]4O)ncc3Cl)cc21" is in?
large value

Any idea which band "CC(C)n1c(N(C)CCO)nc2c(F)cc(-c3nc(N[C@@H]4CCOC[C@H]4O)ncc3Cl)cc21" is in?
large value

Any idea which band "C[C@H]1CCN(C)c2nc3c(F)cc(-c4nc(N[C@@H]5CCN(S(C)(=O)=O)C[C@H]5O)ncc4Cl)cc3n21" is in?
small value

Any idea which band "C[C@H]1CCN(c2ccc(C#N)cc2)c2nc3c(F)cc(-c4nc(N[C@@H]5CCOC[C@H]5O)ncc4Cl)cc3n21" is in?
large value

Any idea which band "CC(C)n1c(N(C)C)nc2c(F)cc(-c3nc(N[C@@H]4CCN(S(C)(=O)=O)C[C@H]4O)ncc3Cl)cc21" is in?
small value
